Listed here are molecules together with their documented pIC50.
Molecular target: Tyk2 (Homo sapiens (Human), UniProt P29597)
Sequence (P29597 whole entry): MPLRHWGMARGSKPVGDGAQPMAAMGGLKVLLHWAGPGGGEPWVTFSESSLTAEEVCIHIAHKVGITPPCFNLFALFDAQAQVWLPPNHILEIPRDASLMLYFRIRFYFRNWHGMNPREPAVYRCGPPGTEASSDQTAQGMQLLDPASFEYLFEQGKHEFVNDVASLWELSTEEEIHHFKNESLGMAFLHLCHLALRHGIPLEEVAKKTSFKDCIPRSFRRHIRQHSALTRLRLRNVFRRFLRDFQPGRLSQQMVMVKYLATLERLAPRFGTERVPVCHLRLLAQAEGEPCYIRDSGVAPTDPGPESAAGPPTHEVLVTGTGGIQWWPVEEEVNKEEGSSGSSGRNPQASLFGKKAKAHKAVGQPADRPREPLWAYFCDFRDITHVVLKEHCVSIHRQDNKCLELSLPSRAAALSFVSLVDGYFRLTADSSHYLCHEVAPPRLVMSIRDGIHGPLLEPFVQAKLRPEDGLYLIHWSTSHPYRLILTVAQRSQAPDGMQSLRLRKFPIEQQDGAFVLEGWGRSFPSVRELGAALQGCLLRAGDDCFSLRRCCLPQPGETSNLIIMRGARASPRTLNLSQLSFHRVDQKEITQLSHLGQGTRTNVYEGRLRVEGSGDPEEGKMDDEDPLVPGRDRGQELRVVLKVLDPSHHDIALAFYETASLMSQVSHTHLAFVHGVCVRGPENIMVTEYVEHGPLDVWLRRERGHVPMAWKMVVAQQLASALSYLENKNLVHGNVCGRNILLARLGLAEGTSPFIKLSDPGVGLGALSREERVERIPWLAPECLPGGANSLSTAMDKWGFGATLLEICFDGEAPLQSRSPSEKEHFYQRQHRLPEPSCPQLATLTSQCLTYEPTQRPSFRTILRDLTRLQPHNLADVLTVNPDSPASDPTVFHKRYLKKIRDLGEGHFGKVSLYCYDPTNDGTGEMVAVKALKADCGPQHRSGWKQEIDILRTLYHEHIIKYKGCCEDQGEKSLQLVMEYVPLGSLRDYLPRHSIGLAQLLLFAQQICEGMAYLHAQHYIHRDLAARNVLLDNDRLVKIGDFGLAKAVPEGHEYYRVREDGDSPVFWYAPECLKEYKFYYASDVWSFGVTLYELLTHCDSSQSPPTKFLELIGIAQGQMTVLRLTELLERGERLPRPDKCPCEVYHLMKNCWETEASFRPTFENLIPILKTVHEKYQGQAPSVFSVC
Test: pSTAT4 Cell Assay (MSD, NK92 cells)
Assay type: cell-based
Conditions: MSD
pIC50: −log10 of the molar value.

{"columns": ["MOLECULE", "pIC50"],
 "data": [
  ["COc1cnc(NC(C)=O)cc1Nc1cc(O[C@H]2C[C@H](OC)C2)nc(C(C)(F)F)n1 [Example 19]", "7.00 to 8.00"],
  ["COC1CC(COc2cnc(NC(C)=O)cc2Nc2cc(C)nc(C(C)(F)F)n2)C1 (stereo not shown) [Example 40]", "7.00 to 8.00"],
  ["COCc1nccc(-c2cnc(NC(C)=O)cc2Nc2ccnc(C(C)(F)F)n2)n1 [Example 696]", "≥ 8.00"],
  ["CC(=O)Nc1cc(Nc2cc(C)nc(C(C)(F)F)n2)c(-c2ncc(CN3CCCC3)s2)cn1 [Example 738]", "≥ 8.00"],
  ["CC(=O)Nc1cc(Nc2cc(C)nc(C(C)(F)F)n2)c(-c2ncc(OC(F)F)cn2)cn1 [Example 660]", "≥ 8.00"]
]}

QUERY: Query the reported pIC50 for Tyk2 (Homo sapiens (Human), UniProt P29597); item: CC(=O)Nc1cc(Nc2cc(C)nc(C(C)(F)F)n2)c(-c2nnc(N(C)C)s2)cn1 [Example 236]
RESULT: ≥ 8.00

QUERY: Query the reported pIC50 for Tyk2 (Homo sapiens (Human), UniProt P29597); item: CC(=O)Nc1cc(Nc2ccnc(C(C)(F)F)n2)c(-c2ccc(CN3CCC4(COC4)C3)cn2)cn1 [Example 703]
RESULT: ≥ 8.00

QUERY: Query the reported pIC50 for Tyk2 (Homo sapiens (Human), UniProt P29597); item: CC(=O)Nc1cc(Nc2cc(C)nc(C(C)(F)F)n2)c(OCC2(C)CC2)cn1 [Example 58]
RESULT: 7.00 to 8.00

QUERY: Query the reported pIC50 for Tyk2 (Homo sapiens (Human), UniProt P29597); item: CCOc1cnc(NC(C)=O)cc1Nc1cc(NC)nc(C(C)(F)F)n1 [Example 485]
RESULT: 7.00 to 8.00

QUERY: Query the reported pIC50 for Tyk2 (Homo sapiens (Human), UniProt P29597); item: CC(=O)Nc1cc(Nc2ccnc(C(C)(F)F)n2)c(-c2cc3n(n2)CCOC3)cn1 [Example 529]
RESULT: ≥ 8.00

----------
Target: Tyk2 (Homo sapiens (Human), UniProt P29597)
Experiment: pSTAT4 Cell Assay (MSD, NK92 cells)
Format: cell-based
Conditions: MSD
pIC50: −log10 of the molar value.
Listed here are molecules together with their documented pIC50.

Recorded results for 3 molecules are shown here.
{"columns": ["MOLECULE", "pIC50"],
 "data": [
  ["COc1nc(-c2cnc(NC(C)=O)cc2Nc2cc(C)nc(C(C)(F)F)n2)ncc1F [Example 659]", "≤ 6.00"],
  ["CC(=O)Nc1cc(Nc2cc(C)nc(C(C)(F)F)n2)c(OCc2nc(C)c(C)o2)cn1 [Example 338]", "7.00 to 8.00"],
  ["CC(=O)Nc1cc(Nc2cccc(C(C)(C)F)n2)c(-c2ncc(F)cn2)cn1 [Example 215]", "7.00 to 8.00"]
]}

QUERY: Look up pIC50: CC(=O)Nc1cc(Nc2cc(C)nc(C(C)(F)F)n2)c(OCc2cnn(C)c2)cn1 [Example 508]
RESULT: 7.00 to 8.00

QUERY: Look up pIC50: CC(=O)Nc1cc(Nc2cc(C)nc(C(C)(F)F)n2)c(-c2cc(OC(C)C)ncn2)cn1 [Example 242]
RESULT: 7.00 to 8.00

QUERY: Look up pIC50: CC(=O)Nc1cc(Nc2cc(C)nc(C(C)(F)F)n2)c(-n2cc3c(n2)CCN(C)C3)cn1 [Example 277]
RESULT: ≥ 8.00

QUERY: Look up pIC50: CC(=O)Nc1cc(Nc2cc(C)nc(C(C)(F)F)n2)c(OC[C@H]2CCC(=O)N2)cn1 [Example 502]
RESULT: 6.00 to 7.00
